Reported Ki is given for each of the following compounds.
- studySystem: soluble human BACE1 catalytic domain (Homo sapiens)
Hi! Could you send only the number? It should be in nM, unit omitted.

## Input # lookup: Ki of COc1ccc(C(=O)Nc2ccc(F)c([C@@]3(C)NC(=N)N(C)S(=O)(=O)[C@@]34CCN(S(C)(=O)=O)C4)c2)nc1
## Output 3

## Input Same again, this time with CN1C(=N)N[C@](C)(c2cc(NC(=O)c3ccc(F)cn3)ccc2F)[C@]2(CCN(S(=O)(=O)Cc3cccnc3)C2)S1(=O)=O
## Output 2

## Input Likewise for COc1ccc(C(=O)Nc2ccc(F)c([C@@]3(C)NC(=N)N(C)S(=O)(=O)[C@]34CCN(CC3CCOC3)C4)c2)nc1 (stereo partly shown) ?
## Output 51

## Input Try the compound COc1ccc(C(=O)Nc2ccc(F)c([C@@]3(C)NC(=N)N(C)S(=O)(=O)[C@@]34CCN(S(=O)(=O)CC3CCCO3)C4)c2)nc1 (stereo partly shown)
## Output 3

## Input What would you report for CN1C(=N)N[C@](C)(c2cc(NC(=O)c3ccc(F)cn3)ccc2F)[C@]2(CCN(S(=O)(=O)CC(F)(F)F)C2)S1(=O)=O ?
## Output 2

## Input What do you get for COc1ccc(C(=O)Nc2ccc(F)c([C@@]3(C)NC(=N)N(C)S(=O)(=O)[C@]34CCN(S(=O)(=O)CC(C)C)C4)c2)nc1 ?
## Output 37

## Input Field entry: CCS(=O)(=O)N1CC[C@]2(C1)[C@@](C)(c1cc(NC(=O)c3ccc(OC)cn3)ccc1F)NC(=N)N(C)S2(=O)=O
## Output 33

====

- studySystem: UniProtKB Q9Y5Z0
resultType: Ki

These solved cases illustrate the format of a correct answer.
## Input Give the measured Ki of COc1ccc(C(=O)Nc2ccc(F)c([C@@]3(C)NC(=N)N(C)S(=O)(=O)[C@]34CCN(S(=O)(=O)CC(C)C)C4)c2)nc1 .
## Output 100 nM

## Input Moving on to CN1C(=N)N[C@](C)(c2cc(NC(=O)c3ccc(F)cn3)ccc2F)[C@@]2(CCN(S(=O)(=O)C3CCCC3)C2)S1(=O)=O
## Output 37 nM

## Input Entry COc1ccc(C(=O)Nc2ccc(F)c([C@@]3(C)NC(=N)N(C)S(=O)(=O)[C@]34CCN(S(=O)(=O)c3ccc(F)cc3)C4)c2)nc1 please
## Output 30 nM

Others:
## Input Requested field: Ki. Item: COc1ccc(C(=O)Nc2ccc(F)c([C@@]3(C)NC(=N)N(C)S(=O)(=O)[C@]34CCN(Cc3cocn3)C4)c2)nc1
## Output 158 nM

## Input Now the same for CN1C(=N)N[C@](C)(c2cc(NC(=O)c3ccc(F)cn3)ccc2F)[C@@]2(CCN(Cc3cnco3)C2)S1(=O)=O
## Output 74 nM

## Input # iterate: CN1C(=N)N[C@](C)(c2cc(NC(=O)c3ccc(F)cn3)ccc2F)[C@]2(CCN(S(=O)(=O)c3ccccc3)C2)S1(=O)=O
## Output 7 nM

## Input // same read-out, input: CN1C(=N)N[C@](C)(c2cc(NC(=O)c3ccc(F)cn3)ccc2F)[C@@]2(CCN(Cc3ccccn3)C2)S1(=O)=O
## Output 23 nM

## Input // repeat for CN1C(=N)N[C@](C)(c2cc(NC(=O)c3ccc(F)cn3)ccc2F)[C@]2(CCN(S(=O)(=O)Cc3cccnc3)C2)S1(=O)=O and report
## Output 5 nM

====

- studySystem: soluble human BACE1 catalytic domain (Homo sapiens, UniProt P56817)
- Sequence (P56817 75-416 limits assumed): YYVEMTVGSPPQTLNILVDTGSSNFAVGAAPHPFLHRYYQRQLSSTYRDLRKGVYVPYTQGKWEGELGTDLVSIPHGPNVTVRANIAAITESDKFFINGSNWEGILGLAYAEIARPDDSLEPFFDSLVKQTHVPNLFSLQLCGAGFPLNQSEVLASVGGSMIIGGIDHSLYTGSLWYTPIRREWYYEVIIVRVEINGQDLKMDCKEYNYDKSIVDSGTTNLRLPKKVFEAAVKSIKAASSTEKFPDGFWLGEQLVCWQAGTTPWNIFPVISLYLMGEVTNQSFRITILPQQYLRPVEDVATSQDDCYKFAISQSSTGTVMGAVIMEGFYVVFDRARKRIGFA
pKi: −log10 of the molar value.
Threshold rule: pKi greater than or equal to 8 is YES; below that, NO.

Field: example entries. Status: answers known.
## Input # bool: pKi of COc1ccc(C(=O)Nc2ccc(F)c([C@@]3(C)NC(=N)N(C)S(=O)(=O)[C@]34CCN(S(=O)(=O)c3cn(C)cn3)C4)c2)nc1 [Example 65] >= 8
## Output NO

## Input Item: COc1ccc(C(=O)Nc2ccc(F)c([C@@]3(C)NC(=N)N(C)S(=O)(=O)[C@@]34CCN(S(=O)(=O)C3CC3)C4)c2)nc1 [Example 60]
## Output YES

## Input Cool, now CN1C(=N)N[C@](C)(c2cc(NC(=O)c3ccc(F)cn3)ccc2F)[C@@]2(CCN(S(=O)(=O)C3CC3)C2)S1(=O)=O [Example 92]
## Output NO

New cases:
## Input Does CN1C(=N)N[C@](C)(c2cc(NC(=O)c3ccc(F)cn3)ccc2F)[C@]2(CCN(S(=O)(=O)c3ccc(F)cc3)C2)S1(=O)=O [Example 73] have a reported pKi of at least 8?
## Output YES

## Input Request: CN1C(=N)N[C@](C)(c2cc(NC(=O)c3ccc(F)cn3)ccc2F)[C@@]2(CCN(CC3CC3)C2)S1(=O)=O [Example 47]
## Output NO

====

- studySystem: purified human autoBACE-2 (Homo sapiens)
- Sequence (Q9Y5Z0 63-473 limits assumed): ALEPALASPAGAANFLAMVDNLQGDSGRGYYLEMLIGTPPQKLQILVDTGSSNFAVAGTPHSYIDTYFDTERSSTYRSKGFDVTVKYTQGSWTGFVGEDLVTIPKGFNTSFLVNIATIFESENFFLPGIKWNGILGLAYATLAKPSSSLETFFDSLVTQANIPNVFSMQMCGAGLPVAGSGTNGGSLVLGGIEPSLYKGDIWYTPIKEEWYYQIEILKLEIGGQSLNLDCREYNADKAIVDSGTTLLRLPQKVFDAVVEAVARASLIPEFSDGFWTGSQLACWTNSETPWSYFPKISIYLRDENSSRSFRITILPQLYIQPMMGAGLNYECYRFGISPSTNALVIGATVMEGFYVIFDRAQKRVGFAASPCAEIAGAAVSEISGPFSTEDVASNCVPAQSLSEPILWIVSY
resultType: pKi
The scale used: pKi is minus the common logarithm of the concentration in molar units.

Some molecules with known pKi results, for comparison:
## Input Record lookup: for purified human autoBACE-2 (Homo sapiens), what pKi belongs to CCS(=O)(=O)N1CC[C@@]2(C1)[C@@](C)(c1cc(NC(=O)c3ccc(F)cn3)ccc1F)NC(=N)N(C)S2(=O)=O [Example 76] ?
## Output 8.40

## Input Next molecule: CCS(=O)(=O)N1CC[C@]2(C1)[C@@](C)(c1cc(NC(=O)c3ccc(F)cn3)ccc1F)NC(=N)N(C)S2(=O)=O [Example 89]
## Output 7.39

***
## Input Give recorded pKi with purified human autoBACE-2 (Homo sapiens) for the following molecule: CN1C(=N)N[C@](C)(c2cc(NC(=O)c3ccc(F)cn3)ccc2F)[C@@]2(CCN(Cc3cocn3)C2)S1(=O)=O [Example 49]
## Output 7.68

====

We begin with a simple list: items and their reported pKi.
- studySystem: UniProtKB Q9Y5Z0
- protocolText: BACE-2 Assay (BACE-HTRF assay)
- Assay type: biochemical
- conditionContext: Ki calculated from IC50 using the Cheng-Prusoff equation; QSY7-EISEVNLDAEFC-Eu-amide substrate 200 nM final, pH 5.0, 30°C; read-out: BACE2 Ki
pKi field: float, defined as -log10 of concentration (mol/L).

Some solved cases for reference:
## Input So what pKi did CC(=O)N1CCC2(C1)[C@@](C)(c1cc(NC(=O)c3ccc(F)cn3)ccc1F)NC(=N)N(C)S2(=O)=O (some centres unmarked) get with UniProtKB Q9Y5Z0?
## Output 8.05

## Input Continue with COc1ccc(C(=O)Nc2ccc(F)c([C@@]3(C)NC(=N)N(C)S(=O)(=O)[C@]34CCN(Cc3cncnc3)C4)c2)nc1
## Output 6.48

## Input Would you kindly repeat that for CN1C(=N)N[C@](C)(c2cc(NC(=O)c3ccc(F)cn3)ccc2F)[C@@]2(CCN(CC3CC3)C2)S1(=O)=O ?
## Output 7.29

## Input What do you get for CN1C(=N)N[C@](C)(c2cc(NC(=O)c3ccc(F)cn3)ccc2F)[C@@]2(CCN(Cc3cccnc3)C2)S1(=O)=O ?
## Output 7.40

Proceed to the following item.
## Input Field: pKi (UniProtKB Q9Y5Z0). Entry: CN1C(=N)N[C@](C)(c2cc(NC(=O)c3ccc(F)cn3)ccc2F)[C@]2(CCN(Cc3ccccn3)C2)S1(=O)=O
## Output 8.22

====

Consider the following pKi values measured on purified human autoBACE-2 (Homo sapiens, UniProt Q9Y5Z0).
// scale note: pKi = -log10(conc_M); give the bare number

## Input Entry COc1ccc(C(=O)Nc2ccc(F)c([C@@]3(C)NC(=N)N(C)S(=O)(=O)[C@@]34CCN(S(C)(=O)=O)C4)c2)nc1 : reported pKi = ?
## Output 8.00

## Input Would you kindly repeat that for CC(C)CC(=O)N1CCC2(C1)[C@@](C)(c1cc(NC(=O)c3ccc(F)cn3)ccc1F)NC(=N)N(C)S2(=O)=O (stereo partly shown) ?
## Output 8.24

## Input Now this one: COc1ccc(C(=O)Nc2ccc(F)c([C@@]3(C)NC(=N)N(C)S(=O)(=O)[C@]34CCN(Cc3cnn(C)c3)C4)c2)nc1
## Output 6.41

## Input Another molecule to look at: CC(C)CS(=O)(=O)N1CC[C@@]2(C1)[C@@](C)(c1cc(NC(=O)c3ccc(F)cn3)ccc1F)NC(=N)N(C)S2(=O)=O
## Output 8.52

## Input Same for CN1C(=N)N[C@](C)(c2cc(NC(=O)c3ccc(F)cn3)ccc2F)[C@@]2(CCN(Cc3cncnc3)C2)S1(=O)=O
## Output 7.11

New cases:
## Input Requested read-out: pKi. Entry: COC1CC(CN2CC[C@]3(C2)[C@@](C)(c2cc(NC(=O)c4ccc(F)cn4)ccc2F)NC(=N)N(C)S3(=O)=O)C1 (stereo partly shown)
## Output 7.28

## Input Now give it for CN1C(=N)N[C@](C)(c2cc(NC(=O)c3ccc(F)cn3)ccc2F)[C@@]2(CCN(S(=O)(=O)C3CC3)C2)S1(=O)=O too.
## Output 7.54

## Input Also, COc1ccc(C(=O)Nc2ccc(F)c([C@@]3(C)NC(=N)N(C)S(=O)(=O)[C@@]34CCN(S(=O)(=O)c3ccc(F)cc3)C4)c2)nc1 please.
## Output 7.70

## Input Try the molecule COc1ccc(C(=O)Nc2ccc(F)c([C@@]3(C)NC(=N)N(C)S(=O)(=O)[C@@]34CCN(S(=O)(=O)C3CC3)C4)c2)nc1
## Output 8.40

## Input And then COc1ccc(C(=O)Nc2ccc(F)c([C@@]3(C)NC(=N)N(C)S(=O)(=O)[C@]34CCN(S(=O)(=O)CC3CCCO3)C4)c2)nc1 (stereo partly shown) , what is it?
## Output 7.06

## Input Could you do the same for COc1ccc(C(=O)Nc2ccc(F)c([C@@]3(C)NC(=N)N(C)S(=O)(=O)[C@@]34CCN(S(=O)(=O)CC(C)C)C4)c2)nc1 , please?
## Output 8.30

## Input Now consider CN1C(=N)N[C@](C)(c2cc(NC(=O)c3ccc(F)cn3)ccc2F)[C@]2(CCN(S(=O)(=O)C3CC3)C2)S1(=O)=O .
## Output 8.70

## Input Now the molecule CN1C(=N)N[C@](C)(c2cc(NC(=O)c3ccc(F)cn3)ccc2F)[C@]2(CCN(S(=O)(=O)c3ccc(F)cc3)C2)S1(=O)=O
## Output 8.00
